System: Enterococcus faecalis
protocol-details: Antibacterial activity against Streptococcus faecalis MGH-2
Type: functional
test-readout: MIC (µg/mL)
Write it as a number; the unit µg/mL goes unstated.

Example results:
CNCC1CCN(c2c(F)c(N)c3c(=O)c(C(=O)O)cn(C4CC4)c3c2F)C1 (stereo not given)
0.025
CCNCC1CCN(c2c(F)c(NC)c3c(=O)c(C(=O)O)cn(C4CC4)c3c2F)C1 (stereo not given)
0.1
CCNCC1CCN(c2c(F)cc3c(=O)c(C(=O)O)cn(C4CC4)c3c2F)C1 (stereo not given)
0.025
CN1CCN(c2c(F)c(N)c3c(=O)c(C(=O)O)cn(C4CC4)c3c2F)CC1
0.1
CC1COc2c(N3CCN(C)CC3)c(F)cc3c(=O)c(C(=O)O)cn1c23 (stereo not given)
0.8

## Task Would you mind telling me what MIC value was observed for NCC1CCN(c2c(F)c(N)c3c(=O)c(C(=O)O)cn(C4CC4)c3c2F)C1 (stereo not given) ?
## Result 0.013

## Task Try this molecule too: Nc1c(F)c(N2CCC(N)C2)c(F)c2c1c(=O)c(C(=O)O)cn2C1CC1 (stereo not given)
## Result 0.025

## Task Ok, now CNc1c(F)c(N2CCNCC2)c(F)c2c1c(=O)c(C(=O)O)cn2C1CC1
## Result 1.6

## Task What do you have for O=C(O)c1cn(C2CC2)c2cc(N3CCNCC3)c(F)cc2c1=O ?
## Result 0.8

## Task Also need O=C(O)c1cn(C2CC2)c2c(F)c(N3CCNCC3)c(F)cc2c1=O , thanks.
## Result 0.4

----------
System: Enterococcus faecalis
protocol-details: Antibacterial activity against Streptococcus faecalis MGH-2
Assay type: functional
test-readout: MIC (µg/mL)
// units = µg/mL; emit number, no label

Look over these answered cases.
CCNCC1CCN(c2c(F)c(NC(C)=O)c3c(=O)c(C(=O)O)cn(C4CC4)c3c2F)C1 (stereo unspecified)
12.5
CC1COc2c(N3CCN(C)CC3)c(F)c(N)c3c(=O)c(C(=O)O)cn1c23 (stereo unspecified)
1.6

## Task Please give the measured MIC for this compound: Nc1c(F)c(N2CCNCC2)c(F)c2c1c(=O)c(C(=O)O)cn2C1CC1
## Result 0.05

## Task One more compound: CCNCC1CCN(c2c(F)c(N)c3c(=O)c(C(=O)O)cn(C4CC4)c3c2F)C1 (stereo unspecified)
## Result 0.025

----------
System: Streptococcus pyogenes
protocol-details: Antibacterial activity against Streptococcus pyogenes C203
Format: functional
test-readout: log10(MIC) (log10 of the value in µg/mL)
Log10 applied to MIC; unit prior to transform: µg/mL.

Here is how some compounds turned out for log10(MIC).
CCNCC1CCN(c2c(F)c(N)c3c(=O)c(C(=O)O)cn(C4CC4)c3c2F)C1 (configuration not stated)
-1.89
O=C(O)c1cn(C2CC2)c2c(F)c(N3CCNCC3)c(F)cc2c1=O
-0.10
CCNCC1CCN(c2c(F)c(NC)c3c(=O)c(C(=O)O)cn(C4CC4)c3c2F)C1 (configuration not stated)
-1.00

## Task Consider the compound shown here: CNCC1CCN(c2c(F)c(N)c3c(=O)c(C(=O)O)cn(C4CC4)c3c2F)C1 (configuration not stated) What is its recorded log10(MIC)?
## Result -2.52

## Task Item: CNc1c(F)c(N2CCNCC2)c(F)c2c1c(=O)c(C(=O)O)cn2C1CC1
## Result 0.49

----------
Measured IC50, listed per entry for reference.
subject-of-test: DNA gyrase (Escherichia coli, UniProt P0AES4+P0AES6)
protocol-details: 50% inhibitory concentration against DNA-gyrase

CN1CCN(c2c(F)c(N(C)C)c3c(=O)c(C(=O)O)cn(C4CC4)c3c2F)CC1
> 492 µM
CC(=O)Nc1c(F)c(N2CCNCC2)c(F)c2c1c(=O)c(C(=O)O)cn2C1CC1
> 246 µM

With those in mind, consider the next compound.
## Task Using the record for CCNCC1CCN(c2c(F)c(NC(C)=O)c3c(=O)c(C(=O)O)cn(C4CC4)c3c2F)C1 (stereo not drawn) , report its IC50.
## Result > 223 µM

----------
Parameter ED50: see the listing below.
Test system: Escherichia coli
protocol-details: Median protective dose against Escherichia coli, determined in acute, lethal systemic infection in female charles river CD-1 mice (po)
Assay type: functional
condition-label: Escherichia coli, po; read-out: PD50
Report as a plain number; the unit mg/kg is understood.

Some molecules with known ED50 results, for comparison:
CNCC1CCN(c2c(F)c(N)c3c(=O)c(C(=O)O)cn(C4CC4)c3c2F)C1 (centres undefined)
7.5
CCNCC1CCN(c2c(F)cc3c(=O)c(C(=O)O)cn(C4CC4)c3c2F)C1 (centres undefined)
4.2
CC1COc2c(N3CCN(C)CC3)c(F)c(N)c3c(=O)c(C(=O)O)cn1c23 (centres undefined)
7.5

Next molecule, please.
## Task Data request, read-out ED50, for CN1CCN(c2c(F)c(N)c3c(=O)c(C(=O)O)cn(C4CC4)c3c2F)CC1
## Result 2.2
